- Test system: P12-Ichikawa
- assay-remarks: cell viability relative to DMSO control; higher = less cytotoxic
- assay-conditions: RPMI 5 mM glucose + 10% dialyzed FBS; 48 h; 0.569 µM
Listed here: items and their measured cell viability.

[
  {
    "structure-smiles-string": "C[N]1N=CC2=C1C=C(C(=C2)OC3=CC=C(NC(=O)\\C4=C\\C=C(\\C)N(C4=O)C5=CC=C(F)C=C5)C=C3F)C6=C[NH]N=C6",
    "cell viability, %": 129
  },
  {
    "structure-smiles-string": "CCCC1=N[N](C)C2=C1\\N=C(/NC2=O)C3=CC(=CC=C3OCC)[S+]([O-])(=O)N4CCN(C)CC4",
    "cell viability, %": 79.7
  },
  {
    "structure-smiles-string": "COC(=O)Nc1ccc(-c2nc(N3CCOCC3)c3cnn(C4CCN(Cc5cccnc5)CC4)c3n2)cc1",
    "cell viability, %": 65.2
  },
  {
    "structure-smiles-string": "C[C@]12CC[C@@H]3c4ccc(O)cc4CC[C@H]3[C@@H]1CC[C@@H]2O",
    "cell viability, %": 102
  }
]

====

- Tested on: SEM cells
- assay-remarks: cell viability relative to DMSO control; higher = less cytotoxic
- assay-conditions: RPMI 5 mM glucose + 10% FBS; 48 h; 0.19 µM

[
  {
    "structure-smiles-string": "COc1cc(Nc2ncc(F)c(Nc3ccc4c(n3)N(COP(=O)(O)O)C(=O)C(C)(C)O4)n2)cc(OC)c1OC",
    "cell viability / %": 41.1
  },
  {
    "structure-smiles-string": "COc1ccc(C(=O)CC(=O)c2ccc(C(C)(C)C)cc2)cc1",
    "cell viability / %": 88
  },
  {
    "structure-smiles-string": "CNC(=O)c1cc(Oc2ccc(NC(=O)Nc3ccc(Cl)c(C(F)(F)F)c3)cc2)ccn1",
    "cell viability / %": 57.1
  },
  {
    "structure-smiles-string": "C/C(=C\\c1csc(C)n1)[C@@H]1C[C@@H]2O[C@]2(C)CCC[C@H](C)[C@H](O)[C@@H](C)C(=O)C(C)(C)[C@@H](O)CC(=O)O1",
    "cell viability / %": 17.3
  }
]

====

Listed here: items and their measured cell viability.
- System: P12-Ichikawa
- assay-remarks: cell viability relative to DMSO control; higher = less cytotoxic
- assay-conditions: HPLM + 10% dialyzed FBS; 48 h; 0.19 µM

[
  {
    "compound": "Cn1cnc(-c2cc3nccc(Oc4ccc(NC(=S)NC(=O)Cc5ccccc5)cc4F)c3s2)c1",
    "cell viability [%]": 91.5
  },
  {
    "compound": "CC(=O)Oc1cc2c(s1)CCN(C(C(=O)C1CC1)c1ccccc1F)C2.Cl (centres undefined)",
    "cell viability [%]": 103
  },
  {
    "compound": "COC(=O)Nc1ccc(-c2nc(N3CCOCC3)c3cnn(C4CCN(Cc5cccnc5)CC4)c3n2)cc1",
    "cell viability [%]": 96.2
  },
  {
    "compound": "CCCc1nc2c(C)cc(-c3nc4ccccc4n3C)cc2n1Cc1ccc(-c2ccccc2C(=O)O)cc1",
    "cell viability [%]": 135
  },
  {
    "compound": "O=C(NCCCNc1nc(Nc2cccc(NC(=O)N3CCCC3)c2)ncc1I)c1cccs1",
    "cell viability [%]": 84
  },
  {
    "compound": "CN1CC/C(CC1)=C3\\c4ccccc4CC(=O)c2sccc23",
    "cell viability [%]": 129
  },
  {
    "compound": "NC1CCC(Nc2nc(Nc3ccc(C(=O)N4CCCCC4)cc3)c3ncn(-c4cccc(F)c4)c3n2)CC1 (centres undefined)",
    "cell viability [%]": 126
  },
  {
    "compound": "C=CC(=O)Nc1cccc(Oc2nc(Nc3ccc(N4CCN(C)CC4)cc3OC)ncc2Cl)c1",
    "cell viability [%]": 86.3
  },
  {
    "compound": "O=[S+]([O-])(CCSSCC[S+](=O)([O-])[O][Na])[O][Na]",
    "cell viability [%]": 124
  }
]

====

- Test system: NOMO1
- assay-remarks: cell viability relative to DMSO control; higher = less cytotoxic
- assay-conditions: HPLM + 10% dialyzed FBS; 48 h; 0.00702 µM

[
  {
    "compound": "CCc1cccc2c3c([nH]c12)C(CC)(CC(=O)O)OCC3 (stereo not given)",
    "assay-target": "NOMO1",
    "cell viability / %": 122
  },
  {
    "compound": "NC(=O)c1ccc(-c2nc(-c3ccc4c(c3)OCO4)c(-c3ccccn3)[nH]2)cc1",
    "assay-target": "NOMO1",
    "cell viability / %": 118
  },
  {
    "compound": "CO[C@H]1/C=C/O[C@@]2(C)Oc3c(C)c(O)c4c(O)c(c(/C=N\\N5CCN(C6CCCC6)CC5)c(O)c4c3C2=O)NC(=O)/C(C)=C\\C=C\\[C@H](C)[C@H](O)[C@@H](C)[C@@H](O)[C@@H](C)[C@H](OC(C)=O)[C@@H]1C",
    "assay-target": "NOMO1",
    "cell viability / %": 104
  },
  {
    "compound": "Cc1cccc(N(C)C(=S)Oc2ccc3ccccc3c2)c1",
    "assay-target": "NOMO1",
    "cell viability / %": 116
  },
  {
    "compound": "Cc1cc(SCc2sc(-c3ccc(C(F)(F)F)cc3)nc2C)ccc1OCC(=O)O",
    "assay-target": "NOMO1",
    "cell viability / %": 97.5
  }
]

====

Listed here: items and their measured cell viability.
- System: NOMO1
- assay-remarks: cell viability relative to DMSO control; higher = less cytotoxic
- assay-conditions: HPLM + 10% dialyzed FBS; 48 h; 0.0211 µM
result-type: cell viability (%)

[
  {
    "structure-smiles-string": "COc1cc(NC(=O)c2ccc(-c3ccc(Cl)cc3)o2)cc(OC)c1",
    "result-type": "cell viability",
    "unit-text": "%",
    "observed-measurement": 112
  },
  {
    "structure-smiles-string": "CCCc1nc2c(C)cc(-c3nc4ccccc4n3C)cc2n1Cc1ccc(-c2ccccc2C(=O)O)cc1",
    "result-type": "cell viability",
    "unit-text": "%",
    "observed-measurement": 110
  },
  {
    "structure-smiles-string": "CCOC(CN1C(=O)[C@](CC(=O)Nc2ccc(C)cc2)(NC(=O)Nc2ccc(C)cc2)c2ccccc21)OCC",
    "result-type": "cell viability",
    "unit-text": "%",
    "observed-measurement": 113
  },
  {
    "structure-smiles-string": "CC1(C)Cc2c(sc(NC(=S)NC(=O)c3ccccc3)c2C(=O)O)CO1",
    "result-type": "cell viability",
    "unit-text": "%",
    "observed-measurement": 117
  },
  {
    "structure-smiles-string": "O=C(O)c1ccc(-c2c[nH]c3ncc(-c4ccccc4)cc23)cc1C1CCCC1",
    "result-type": "cell viability",
    "unit-text": "%",
    "observed-measurement": 130
  },
  {
    "structure-smiles-string": "CN(C)/[N+]([O-])=N/Oc1cc(ON[N+](=O)N2CCN(C(=O)c3cc(Cc4n[nH]c(=O)c5ccccc45)ccc3F)CC2)c([N+](=O)[O-])cc1[N+](=O)[O-]",
    "result-type": "cell viability",
    "unit-text": "%",
    "observed-measurement": 100
  },
  {
    "structure-smiles-string": "Nc1nc(Nc2ccc([S+](N)(=O)[O-])cc2)nn1C(=O)c1c(F)cccc1F",
    "result-type": "cell viability",
    "unit-text": "%",
    "observed-measurement": 113
  },
  {
    "structure-smiles-string": "C[N+](C)(C)CC(=O)O.[Cl-]",
    "result-type": "cell viability",
    "unit-text": "%",
    "observed-measurement": 94.9
  }
]

====

- Tested on: NOMO1
- assay-remarks: cell viability relative to DMSO control; higher = less cytotoxic
- assay-conditions: HPLM + 10% dialyzed FBS; 48 h; 5.12 µM
result-type: cell viability (%)

[
  {
    "compound": "COc1ccc2c(OCc3nnc4ccc(-c5ccccc5)nn34)ccnc2c1",
    "result-type": "cell viability",
    "unit-text": "%",
    "observed-measurement": 94
  },
  {
    "compound": "Cn1c(=O)c2[nH]cnc2n(C)c1=O",
    "result-type": "cell viability",
    "unit-text": "%",
    "observed-measurement": 110
  },
  {
    "compound": "COCCCOc1ccnc(C[S+]([O-])c2nc3ccccc3[nH]2)c1C (centres undefined)",
    "result-type": "cell viability",
    "unit-text": "%",
    "observed-measurement": 130
  },
  {
    "compound": "C[C@H]1C[C@H]2[C@@H]3CCC4=CC(=O)C=C[C@]4(C)[C@H]3C(=O)C[C@]2(C)[C@@]1(O)C(=O)CO",
    "result-type": "cell viability",
    "unit-text": "%",
    "observed-measurement": 86.8
  },
  {
    "compound": "CC(C)(C)Cn1c(N)nc2ccc(-c3[nH]c(C(C)(C)C)nc3-c3ccc(F)cc3)nc21",
    "result-type": "cell viability",
    "unit-text": "%",
    "observed-measurement": 75.3
  },
  {
    "compound": "NC1CCC(Nc2nc(Nc3ccc(C(=O)N4CCCCC4)cc3)c3ncn(-c4cccc(F)c4)c3n2)CC1 (centres undefined)",
    "result-type": "cell viability",
    "unit-text": "%",
    "observed-measurement": 107
  },
  {
    "compound": "CC1=CC=C2\\N=C/3N(CC[C@@]3(O)C(=O)C2=C1)C4=CC=CC=C4",
    "result-type": "cell viability",
    "unit-text": "%",
    "observed-measurement": 74
  },
  {
    "compound": "CC(Cc1ccc(O)c(O)c1)(NN)C(=O)O (centres undefined)",
    "result-type": "cell viability",
    "unit-text": "%",
    "observed-measurement": 115
  },
  {
    "compound": "Cn1cc(-c2cnn3c(N)c(Br)c([C@@H]4CCCNC4)nc23)cn1",
    "result-type": "cell viability",
    "unit-text": "%",
    "observed-measurement": 21.8
  }
]
